GI50 overview
# Tested on: UO-31
# testDetails: NCI tumour cell line growth inhibition, 48 h
Calls of active or inactive are those of the source. No stated cut-off is given here; in the data, active = GI50 up to about 1.1 µM and inactive = higher.

Please indicate GI50 recorded for CCOP(=O)(O)C(Nc1ccc(/N=N/c2ccccc2)cc1)c1ccc(C(Nc2ccc(/N=N/c3ccccc3)cc2)P(=O)(O)OCC)cc1 (stereo not given)
67.1 µM (inactive)

Please indicate GI50 recorded for CC(CCc1ccc2c(c1)c(N)c1ccc(N)cc1[n+]2[O-])CC(C)(C)C (stereo not given)
8.95 µM (inactive)

Please indicate GI50 recorded for `COc1ccc(SCc2cc(OCc3ccccc3)c(OCc3ccccc3)c(OCc3ccccc3)c2)cc1`
1.76 µM (inactive)

Please indicate GI50 recorded for N#CCCC(CC#N)N1CCN(CCO)CC1 (stereo not given)
> 100 µM (inactive)

Please indicate GI50 recorded for `COC(=O)c1c(N)n[nH]c1N`
> 100 µM (inactive)

* * *

# Test system: COLO 205
# testDetails: NCI tumour cell line growth inhibition, 48 h
Active and inactive are the calls of the source. Cut-off read from the data, not from the text of the source: active = GI50 up to about 1.1 µM and inactive = higher.
outcomeMeasure: GI50

See these solved cases before continuing.
{"compound": "COc1cc([C@@H]2c3cc4c(cc3[C@@H](c3c(O)cc(O)c5c3O[C@H](c3ccc(O)c(O)c3)[C@H](OC(=O)c3cc(O)c(O)c(O)c3)C5)[C@H]3COC(=O)[C@H]23)OCO4)cc(OC)c1O", "GI50": "28.7 µM (inactive)"}
{"compound": "Cc1ccc(C(=O)/C=C(\\O)C(=O)NC23CC4CC(CC(C4)C2)C3)cc1", "GI50": "> 10 µM (inactive)"}
{"compound": "COC(=O)NNC(=O)OC.COC(=O)Nc1ccccc1NC(=O)OC.COC(=O)Oc1nn(C(=O)OC)c(=O)c2ccccc12", "GI50": "> 100 µM (inactive)"}
{"compound": "O=P(OCc1ccccc1)(OCc1ccccc1)C(O)/C=C/c1ccccc1 (stereo not drawn)", "GI50": "21.3 µM (inactive)"}
{"compound": "O=C(CC(=O)N1N=C(N(c2ccccc2)c2ccccc2)CC1c1ccccc1)Nc1ccccc1 (stereo not drawn)", "GI50": "> 100 µM (inactive)"}

Please indicate GI50 recorded for `COc1cc2c(cc1OCCCN1CCOCC1)N=C[C@@H]1CCCN1C2=O`
1.87 µM (inactive)

Please indicate GI50 recorded for `COc1cc(/C=C/c2cc(=O)cc(/C=C/c3ccc(O)c(OC)c3)o2)ccc1O`
> 100 µM (inactive)

Please indicate GI50 recorded for `O=C(n1c2ccccc2c2nnc(S)nc21)C(F)(F)F`
> 100 µM (inactive)

Please indicate GI50 recorded for `CCO/C=C1\N=C(c2ccc(Cl)c(Cl)c2)OC1=O`
> 100 µM (inactive)

Please indicate GI50 recorded for `O=c1cnn(C/C=C/CO)c(=O)[nH]1`
> 100 µM (inactive)

* * *

# Test system: SK-MEL-28
# testDetails: NCI tumour cell line growth inhibition, 48 h
Activity calls are given as the source filed them. No stated cut-off is given here; in the data, active = GI50 up to about 1.1 µM and inactive = higher. Where a SMILES comes first, the peptide text is derived from it. The star is where a group is joined. Cbz = O=C(OCc1ccccc1)*; Boc = CC(C)(C)OC(=O)*; Bn = c1ccc(C*)cc1
Select the matching outcome among yes (active), no (inactive)

Example entries begin here.
{"compound": "O=C(N/N=C(COc1ccc(Cl)cc1)\\N=C\\c1ccncc1)c1ccncc1", "className": "no"}
{"compound": "COC(=O)c1nn(C(=N)c2ccc(Cl)cc2)c2c1CCCCC2", "className": "no"}
{"compound": "O=[N+]([O-])c1ccc(C(=S)Nc2ccccc2)o1", "className": "no"}
{"compound": "Cn1c2ccccc2n2c3ccccc3c(=O)c(C#N)c12", "className": "no"}
{"compound": "Cc1ccc(/C=C2\\CCCCC2=O)cc1", "className": "no"}
{"compound": "CC(/C=C/c1ccccc1)=N\\NC(=S)N/N=C(C)/C=C/c1ccccc1", "className": "no"}
{"compound": "CCOC(=O)C(CS)NC(=O)CCCCCCCC(=O)O (stereo not given)", "className": "no"}
{"compound": "Cc1ccc(Cc2nnc(S)[nH]2)cc1", "className": "no"}
{"compound": "Fc1cc(F)c(F)c(S)c1F", "className": "no"}
{"compound": "COc1cc(OC)cc(C(=O)CC(=O)c2cc(OC)cc(OC)c2)c1", "className": "no"}

# fetch the recorded call for CC(=O)O[C@H]1C(=O)[C@@]2(C)C([C@H](OC(=O)c3ccccc3)[C@]3(O)C[C@H](OC(=O)[C@H](O)[C@H](NC(=O)c4ccccc4)c4ccc(Cl)cc4)C(C)=C1C3(C)C)C1(OC(C)=O)CO[C@@H]1C[C@@H]2O (stereo not given in full) here
yes

# fetch the recorded call for CCOC(=O)C1CCCCN1CCc1c[nH]c2ccccc12 (stereo not given) here
no

# fetch the recorded call for `Cc1c[nH]c(C(=O)O)c1-c1ccc2c(-c3ccccc3)nc3ccccc3n12` here
no

# fetch the recorded call for CC(C)[C@@H]1CC[C@@H](C)C[C@H]1OC(=O)/C=C1/C2C=CC(O2)C1C(=O)O[C@@H]1C[C@H](C)CC[C@H]1C(C)C (stereo not given in full) here
no

# fetch the recorded call for C#CCC1(C(=O)OCC)C(=O)c2ccccc2N(C)C1=O (stereo not given) here
no

# fetch the recorded call for `C/C(CC(O)(C(F)(F)F)C(F)(F)F)=N\O` here
no

# fetch the recorded call for `COC(=O)CSc1[nH]c2nc(C)nc(Nc3ccccc3)c2c1C#N` here
no

# fetch the recorded call for `CC(C)[Si](OC1=CCC[C@H]2NC(=O)[C@@H](Cc3ccccc3)[C@@]12C)(C(C)C)C(C)C` here
no

# fetch the recorded call for CC(C)(C)OC(=O)NC(Cc1ccc(OCc2ccccc2)cc1)C(=O)NC(CCCCNC(=O)OCc1ccccc1)C(=O)O (stereo not given) (Boc-Tyr(Bn)-Lys(Cbz)-OH; configuration not given here) here
no

# fetch the recorded call for NC(=O)c1nc[nH]c1/N=N/SCC(N)C(=O)O (stereo not given) here
no
